Target: LHRH (Rattus norvegicus, UniProt P30969)
Construct: evaluated in an in vitro test for LHRH antagonist potency (pA2); endogenous in cells; host or cells: pituitary cells (rat, from my own knowledge of the cited method)
Sequence (P30969 1-327): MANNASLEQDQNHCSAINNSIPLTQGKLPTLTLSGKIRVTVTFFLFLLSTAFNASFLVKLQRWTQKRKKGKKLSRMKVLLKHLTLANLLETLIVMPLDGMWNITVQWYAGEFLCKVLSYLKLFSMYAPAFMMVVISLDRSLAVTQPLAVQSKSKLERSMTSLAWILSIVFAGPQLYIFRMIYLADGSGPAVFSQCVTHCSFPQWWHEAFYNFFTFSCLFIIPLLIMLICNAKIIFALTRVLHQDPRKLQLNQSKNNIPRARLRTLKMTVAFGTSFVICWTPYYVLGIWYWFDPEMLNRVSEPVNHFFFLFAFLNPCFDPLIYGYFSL
Experiment: in vitro test for LHRH antagonist potency (pA2)
Type: cell-based
Details: negative logarithm of the antagonist concentration required to shift the response curve produced by the agonist leuprolide to two-fold higher concentration
Numbered stars: 1 amine (or outer) side, 2 acyl side, 3 side chain; on linkers, the order of the positions; unused ones are H or OH. Square brackets hold non-standard residues; d marks the D form. Peptide text beside a SMILES is read from it. * marks the point of attachment. dPhe(4-Cl) = N[C@H](Cc1ccc(Cl)cc1)C(=O)O; d2Nal = N[C@H](Cc1ccc2ccccc2c1)C(=O)O; Lys(iPr) = CC(C)NCCCC[C@H](N)C(=O)O; NMeY = CN[C@@H](Cc1ccc(O)cc1)C(=O)O; dCit = NC(=O)NCCC[C@@H](N)C(=O)O; d3Pal = N[C@H](Cc1cccnc1)C(=O)O; Nicotinoyl = O=C(c1cccnc1)*; Methoxyacetyl = COCC(=O)*; Morpholide = C1CN(*)CCO1; CO = O=C([*:1])[*:2]; For = O=C*
The reader will find reported Kb values listed item by item below.
Readout Kind: Kb

CC(C)C[C@H](NC(=O)[C@@H](CCCNC(N)=O)NC(=O)[C@H](Cc1ccc(O)cc1)N(C)C(=O)[C@H](CO)NC(=O)[C@@H](Cc1cccnc1)NC(=O)[C@@H](Cc1ccc(Cl)cc1)NC(=O)[C@@H](Cc1ccc2ccccc2c1)NC(=O)N1CCOCC1)C(=O)N[C@@H](CCCNC(=N)N)C(=O)N1CCC[C@H]1C(=O)N[C@H](C)C(N)=O [Example 8b] ({Morpholide-CO}-[d2Nal][dPhe(4-Cl)][d3Pal]S[NMeY][dCit]LRP[dA]-NH2); 20 pM
CC(C)C[C@H](NC(=O)[C@@H](CCCNC(N)=O)NC(=O)[C@H](Cc1ccc(O)cc1)N(C)C(=O)[C@H](CO)NC(=O)[C@@H](Cc1cccnc1)NC(=O)[C@@H](Cc1ccc(Cl)cc1)NC(=O)[C@@H](Cc1ccc2ccccc2c1)NC=O)C(=O)N[C@@H](CCCNC(=N)N)C(=O)N1CCC[C@H]1C(=O)N[C@H](C)C(N)=O [Example 5a] (For-[d2Nal][dPhe(4-Cl)][d3Pal]S[NMeY][dCit]LRP[dA]-NH2); 4.47 pM
COCC(=O)N[C@H](Cc1ccc2ccccc2c1)C(=O)N[C@H](Cc1ccc(Cl)cc1)C(=O)N[C@H](Cc1cccnc1)C(=O)N[C@@H](CO)C(=O)N(C)[C@@H](Cc1ccc(O)cc1)C(=O)N[C@H](CCCCNC(=O)c1cccnc1)C(=O)N[C@@H](CC(C)C)C(=O)N[C@@H](CCCCNC(C)C)C(=O)N1CCC[C@H]1C(=O)N[C@H](C)C(N)=O [Example 2d] (Methoxyacetyl-[d2Nal][dPhe(4-Cl)][d3Pal]S[NMeY][dK](Nicotinoyl)L[Lys(iPr)]P[dA]-NH2); 7.24 pM
